# Tested on: methicillin-resistant Staphylococcus aureus (MRSA)
# assayProtocol: Antibacterial assay (Test C, broth microdilution MIC) against MRSA
# Format: cell-based
# measurementContext: minimal inhibitory concentration, 37° C., growth read after 24 to 48 hours at OD 600 nm, read-out: MRSA (MIC ug/ml)
Readings of MIC for the listed compounds

[
  {
    "compound": "C[n+]1cc(-c2cccc(-c3ccccc3)c2)nc2ccccc21 [Example 3]",
    "u": "µg/mL",
    "inequalitySign": "=",
    "MIC": 0.25
  },
  {
    "compound": "CC(C)(C)c1ccc(-c2ncnc3c(CN)cccc23)cc1 [Example 14]",
    "u": "µg/mL",
    "inequalitySign": "=",
    "MIC": 64
  },
  {
    "compound": "C[n+]1cc(-c2cc(C(=O)NCCO)cc(-c3ccc(C(C)(C)C)cc3)c2)nc2ccccc21 [Example 8]",
    "u": "µg/mL",
    "inequalitySign": "=",
    "MIC": 4
  },
  {
    "compound": "Cc1cccc(-c2nc3ccccc3nc2NCCN)c1 [Example 15]",
    "u": "µg/mL",
    "inequalitySign": ">",
    "MIC": 64
  },
  {
    "compound": "C[n+]1cc(-c2cccc(F)c2)nc2ccccc21 [Example 2]",
    "u": "µg/mL",
    "inequalitySign": "=",
    "MIC": 4
  },
  {
    "compound": "CC(C)(C)c1cccc(-c2cnc3cccc(CNC(=N)N)c3n2)c1 [Example 21]",
    "u": "µg/mL",
    "inequalitySign": "=",
    "MIC": 2
  },
  {
    "compound": "CC(C)(C)c1ccc(-c2cnc3c(CNC(=N)N)cccc3n2)cc1 [Example 10]",
    "u": "µg/mL",
    "inequalitySign": "=",
    "MIC": 2
  },
  {
    "compound": "C[n+]1cc(-c2ccccc2)nc2ccccc21 [Example 1]",
    "u": "µg/mL",
    "inequalitySign": "=",
    "MIC": 8
  },
  {
    "compound": "CC(C)(C)c1cccc(-c2cnc3c(CNC(=N)N)cccc3n2)c1 [Example 11]",
    "u": "µg/mL",
    "inequalitySign": "=",
    "MIC": 2
  },
  {
    "compound": "CC(=N)NCc1cccc2c(-c3ccc(C(C)(C)C)cc3)ncnc12 [Example 13]",
    "u": "µg/mL",
    "inequalitySign": "=",
    "MIC": 64
  },
  {
    "compound": "C[n+]1cc(-c2ccc(C(C)(C)C)cc2)nc2ccccc21 [Example 5]",
    "u": "µg/mL",
    "inequalitySign": "=",
    "MIC": 1
  },
  {
    "compound": "CC(C)(C)c1ccc(-c2ncnc3c(CNC(=N)N)cccc23)cc1 [Example 12]",
    "u": "µg/mL",
    "inequalitySign": "=",
    "MIC": 4
  },
  {
    "compound": "CC(C)(C)c1cccc(-c2cnc3cc(CNC(=N)N)ccc3n2)c1 [Example 22]",
    "u": "µg/mL",
    "inequalitySign": "=",
    "MIC": 8
  },
  {
    "compound": "C[n+]1cc(-c2cc(C(N)=O)cc(-c3ccc(C(C)(C)C)cc3)c2)nc2ccccc21 [Example 7]",
    "u": "µg/mL",
    "inequalitySign": "=",
    "MIC": 2
  },
  {
    "compound": "CC(C)(C)c1ccc(-c2cccc3c(CNC(=N)N)ncnc23)cc1 [Example 16]",
    "u": "µg/mL",
    "inequalitySign": "=",
    "MIC": 64
  },
  {
    "compound": "CC(C)(C)c1ccc(-c2ccnc3c(CN)ccnc23)cc1 [Example 18]",
    "u": "µg/mL",
    "inequalitySign": ">",
    "MIC": 64
  },
  {
    "compound": "CC(C)(C)c1ccc(-c2ccnc3c(CNC(=N)N)ccnc23)cc1 [Example 17]",
    "u": "µg/mL",
    "inequalitySign": "=",
    "MIC": 8
  },
  {
    "compound": "CC(C)(C)c1ccc(-c2cc(C(=O)NCCN)cc(-c3cnc4ccccc4n3)c2)cc1 [Example 9]",
    "u": "µg/mL",
    "inequalitySign": "=",
    "MIC": 4
  },
  {
    "compound": "COC(=O)c1cc(-c2ccc(C(C)(C)C)cc2)cc(-c2c[n+](C)c3ccccc3n2)c1 [Example 6]",
    "u": "µg/mL",
    "inequalitySign": "=",
    "MIC": 1
  },
  {
    "compound": "C[n+]1cc(-c2cccc(C(C)(C)C)c2)nc2ccccc21 [Example 4]",
    "u": "µg/mL",
    "inequalitySign": "=",
    "MIC": 1
  }
]

Provenance of the data: patent US9822108B2
